Biological target: T1, human GREM1 (hGREM1-His; SEQ ID NO: 595) (human, UniProt O60565 25-184)
T1 construct: also called biotin-hGREM1-His; recombinant human GREM1 protein
T1 sequence: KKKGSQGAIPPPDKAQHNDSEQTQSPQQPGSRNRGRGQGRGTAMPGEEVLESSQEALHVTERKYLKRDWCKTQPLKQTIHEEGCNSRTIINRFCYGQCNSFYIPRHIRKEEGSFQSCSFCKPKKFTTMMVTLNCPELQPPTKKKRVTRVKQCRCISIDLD
Experiment: competition ELISA, biotin-hGREM1-His (100 pM) binding to coated hBMP4
A collection of binders and their measured % blocked at maximum Ab tested (20 nM)
Could you give me the number in %? Just the number is fine.

BINDER | VALUE_KIND | NUMERIC_VALUE
H4H2926N (antibody, human IgG4, V domains shown, H4H prefix = human IgG4 Fc) VH: EVQLVESGGGLVQTGRSLRLSCAASGFTFDDYAMNWVRQAPGKGLEWVSGISWNSGNIGYADSVKGRFTISRDNAKNSLYLQMNSLRAEDTALYYCVKYIGQQLVQDYFDYWGQGTLVTVSS VL: DIQMTQSPSSLSASVGDRVTITCQASQDITNYLNWYQQRPGKAPKLLIYDAFNLERGVPSRFSGSGYGTYFTFTISSLQPEDIAIYYCQQYDNLPLTFGGGTKVEIE | % blocked at maximum Ab tested (20 nM) | 93

Here is another binder to look at.
Prompt line: Name the recorded % blocked at maximum Ab tested (20 nM) of the binder listed here: H4H6232P (antibody, human IgG4, V domains shown, H4H prefix = human IgG4 Fc) VH: QVQLVQSGAEVKKPGASVKVSCKVSGYTLTELSMHWVRQAPGKGLEWMGGFDPEDGETIYAQKFQGRLTMTEDTSTDTAYMELSSLRSEDTAVYYCATDDYDILTSYPYNMDVWGQGTTVTVSS VL: DIQMTQSPSSLSASVGDRVTITCRASQSINNYLNWYQQKPGKAPKLLIYAASSLQSGVPSRFSGSGSGTDFTLTISSLQPEDFGTYYCQQSDSTPFTFGPGTKVDIK
Response line: 93

// data source = patent US20200157194A1
